- target_of_assay: Trace amine-associated receptor 1 (Homo sapiens)
- test_description: blockers of beta-PEA-driven TAAR1 calcium signal – Fluo-8 calcium fluorescence, CHO RD-HGA16 cells, primary screen (AID 624466)
- experimental_setup: CHO RD-HGA16 TAAR1, Fluo-8 calcium fluorescence, antagonist; at 3 µM
The whole screen tested about 360,000 compounds, of which about 5,400 (1.5%) were called active.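 How the source made its calls: active means inhibition above a per-plate cutoff, the mean inhibition of test compounds on that plate plus 3 SD (cut at about 49% in these data); inactive means the rest.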 The full list was thinned out, with actives kept by preference.
Classes used: YES (active), NO (inactive)

>>> discrete_label("COc1ccc(C(=O)NCC[N+](C)(C)C)cc1")
"NO"
>>> discrete_label("O=C(O)C1CCCN(S(=O)(=O)c2cccc3cccnc23)C1 (stereo unspecified)")
"NO"
>>> discrete_label("CCn1c(COc2c(C)cccc2C)nnc1SCc1nc2ccccc2c(=O)[nH]1")
"NO"
>>> discrete_label("CCOC(=O)N1CCC(=NNC(N)=O)CC1")
"NO"
>>> discrete_label("OC(CCl)CCl")
"NO"
>>> discrete_label("COC(=O)C1=C(C)N(Cc2ccc(C(F)(F)F)cc2)C(=NCc2ccccc2)NC1c1ccccc1C(F)(F)F (stereo unspecified)")
"NO"
>>> discrete_label("COc1ccc(-n2nc(C(=O)NCC(=O)N3CCC(C(N)=O)CC3)c3ccccc3c2=O)cc1OC")
"NO"
>>> discrete_label("Cn1c(-c2ccc(F)cc2)cnc1SCC(=O)NCc1ccco1")
"NO"
>>> discrete_label("O=c1[nH]c(CSc2ncc(-c3ccc(F)cc3)n2Cc2ccco2)nc2ccccc12")
"YES"
>>> discrete_label("COc1ccc(NC(=O)C2CCCN(S(=O)(=O)c3cccc4cccnc34)C2)cc1OC (stereo unspecified)")
"YES"
>>> discrete_label("CCOc1ncccc1C(=O)OCC(=O)c1c[nH]c2ccccc12")
"NO"
